As shown below, each of these variants has a reported abundance fitness value.
B1: Homeobox protein cut-like 1, residues 941 to 1008; numbered along this chain, P39880 (parent)
chain: QEVDTIELTRQVKEKLAKNGICQRIFGEKVLGLSQGSVSDMLSRPKPWSKLTQKGREPFIRMQLWLNG

Variants of: B1
Assay: abundance fitness (aPCA) (normalised: wild type 0, dead -1); higher = more abundant; growth selection in yeast, the domain comes from the species named
Details: Homo sapiens

>  <VARIANT NAME>
I25F

>  <abundance fitness>
0.07

$$$$
>  <VARIANT NAME>
D40N

>  <abundance fitness>
-0.133

$$$$
>  <VARIANT NAME>
Q35W

>  <abundance fitness>
0.064

$$$$
>  <VARIANT NAME>
T5F

>  <abundance fitness>
-0.235

$$$$
>  <VARIANT NAME>
E14Y

>  <abundance fitness>
-0.418

$$$$
>  <VARIANT NAME>
S37C

>  <abundance fitness>
0.066

$$$$
>  <VARIANT NAME>
S39G

>  <abundance fitness>
0.019

$$$$
>  <VARIANT NAME>
M41D

>  <abundance fitness>
-0.194

$$$$
>  <VARIANT NAME>
I21F

>  <abundance fitness>
-0.115

$$$$
>  <VARIANT NAME>
C22A

>  <abundance fitness>
-0.053

$$$$
>  <VARIANT NAME>
P47K

>  <abundance fitness>
-0.029

$$$$
>  <VARIANT NAME>
L42F

>  <abundance fitness>
-0.158

$$$$
>  <VARIANT NAME>
W48F

>  <abundance fitness>
-0.311

$$$$
>  <VARIANT NAME>
G32W

>  <abundance fitness>
-0.377

$$$$
>  <VARIANT NAME>
P47S

>  <abundance fitness>
-0.086

$$$$
>  <VARIANT NAME>
R44Q

>  <abundance fitness>
-0.241

$$$$
>  <VARIANT NAME>
D40I

>  <abundance fitness>
-0.349

$$$$
>  <VARIANT NAME>
V38N

>  <abundance fitness>
-0.331

$$$$
>  <VARIANT NAME>
S34R

>  <abundance fitness>
0.02

$$$$
>  <VARIANT NAME>
R44N

>  <abundance fitness>
0.054

$$$$
>  <VARIANT NAME>
K29Y

>  <abundance fitness>
-0.492

$$$$
>  <VARIANT NAME>
L42D

>  <abundance fitness>
-0.393

$$$$
